Test system: Escherichia coli
Test description: Minimum inhibitory concentration of compound tested for antibacterial activity against Escherichia coli ML/35
Assay type: functional
# MIC values compiled below

CO[C@H]1/C=C/O[C@@]2(C)Oc3c(C)c(O)c4c(O)c(c(/C=N/N5CCN(C)CC5)c(O)c4c3C2=O)NC(=O)/C(C)=C\C=C\[C@H](C)[C@H](O)[C@@H](C)[C@@H](O)[C@@H](C)[C@H](OC(C)=O)[C@@H]1C | 6 µg/mL

IN: What value of MIC has been reported for the following compound? COC1/C=C/OC2(C)Oc3c(C)c(O)c4c(c3C2=O)C(=O)C(C(=O)Nc2ccc(Br)cc2)=C(NC(=O)/C(C)=C\C=C\C(C)C(O)C(C)C(O)C(C)C(OC(C)=O)C1C)C4=O (stereo not drawn)
OUT: > 50 µg/mL

IN: Now consider COC1/C=C/OC2(C)Oc3c(C)c(O)c4c(c3C2=O)C(=O)C(C(=O)OCC(O)CO)=C(NC(=O)/C(C)=C\C=C\C(C)C(O)C(C)C(O)C(C)C(OC(C)=O)C1C)C4=O (stereo not drawn) .
OUT: > 50 µg/mL
